- Measured Target: Mu-type opioid receptor (Cavia porcellus, UniProt P97266)
- Sequence (P97266 whole entry): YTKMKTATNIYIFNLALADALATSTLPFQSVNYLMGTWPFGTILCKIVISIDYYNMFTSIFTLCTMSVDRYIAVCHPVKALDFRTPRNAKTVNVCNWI
- Test Protocol: Binding affinity to displace radioligand [3H]DAMGO on Opioid receptor mu 1 in guinea pig membranes.
- Type: cell membranes
Kindly apply the following: Satisfied if Ki is less than 0.06 µM, Not satisfied in every other case.

Structure As Smiles	Class Assignment
CNc1ccc2c3c1O[C@H]1[C@@H](O)C=C[C@H]4[C@@H](C2)N(C)CC[C@@]341	Not satisfied
CN1CC[C@]23c4c5ccc(NCc6ccccc6)c4O[C@H]2[C@@H](O)C=C[C@H]3[C@H]1C5	Satisfied
CN(C)c1ccc2c3c1O[C@H]1[C@@H](O)C=C[C@H]4[C@@H](C2)N(C)CC[C@@]341	Not satisfied
C[C@H]1[C@H]2Cc3ccc(N)cc3[C@@]1(C)CCN2CC1CC1	Satisfied
